The origin of these recorded values is paper PMC9578392.

Tested on: CYP3A
Experiment: Drug-drug interaction with midazolam (cohort G)
Details: human, in vivo, 2 mg
measuredAttribute: AUC(0-inf) (ng·h/mL)
Kindly answer with a numeric value in ng·h/mL, unit omitted.

Ask | Using the record for `Cc1ncc2n1-c1ccc(Cl)cc1C(c1ccccc1F)=NC2` , report its AUC(0-inf).
Reply | 35.7

---

Test: Single ascending oral dose pharmacokinetics (part 1, plasma and urine, fasted)
Assay type: in vivo, human
Conditions: human, plasma, oral, cohort/dose E/1000 mg, single dose, geometric mean (%CV), read-out: Vz/F
measuredAttribute: Vd/F (L)
Kindly answer with a numeric value in L, unit omitted.

Ask | Using the record for `Cn1cnc(Cn2c(=O)[nH]/c(=N\c3cc4cn(C)nc4cc3Cl)n(Cc3cc(F)c(F)cc3F)c2=O)n1` , report its Vd/F.
Reply | 20.6

---

Assay: Single ascending oral dose pharmacokinetics (part 1, plasma and urine, fasted)
Format: in vivo, human
Details: human, plasma, oral, single dose 20 to 2,000 mg, range across dose groups, read-out: median time to maximum plasma concentration (Tmax)
measuredAttribute: Tmax

Ask | Using the record for `Cn1cnc(Cn2c(=O)[nH]/c(=N\c3cc4cn(C)nc4cc3Cl)n(Cc3cc(F)c(F)cc3F)c2=O)n1` , report its Tmax.
Reply | 1.5 to 4 h

---

Experiment: Effect of food on pharmacokinetics (cohort C, 250 mg crossover)
Format: in vivo, human
Details: human, plasma, oral, 250 mg, Cohort C/250 mg single dose, Fasted; read-out: Cmax, GLS mean
measuredAttribute: Cmax

Ask | Using the record for Cn1cnc(Cn2c(=O)[nH]/c(=N\c3cc4cn(C)nc4cc3Cl)n(Cc3cc(F)c(F)cc3F)c2=O)n1 [Ensitrelvir, ensitrelvir fumaric acid] , report its Cmax.
Reply | 15200 ng/mL

---

Test: Single ascending oral dose pharmacokinetics (part 1, plasma and urine, fasted)
Format: in vivo, human
Settings: human, plasma, oral, cohort/dose A/20 mg, single dose, geometric mean (%CV)
measuredAttribute: MRT

Ask | Using the record for Cn1cnc(Cn2c(=O)[nH]/c(=N\c3cc4cn(C)nc4cc3Cl)n(Cc3cc(F)c(F)cc3F)c2=O)n1 [Ensitrelvir, ensitrelvir fumaric acid] , report its MRT.
Reply | 61.8 h

---

Test: Single ascending oral dose pharmacokinetics (part 1, plasma and urine, fasted)
Format: in vivo, human
Details: human, plasma, oral, cohort/dose D/500 mg, single dose, geometric mean (%CV)
measuredAttribute: AUC(0-t) (µg·h/mL)
Kindly answer with a numeric value in µg·h/mL, unit omitted.

Ask | Using the record for `Cn1cnc(Cn2c(=O)[nH]/c(=N\c3cc4cn(C)nc4cc3Cl)n(Cc3cc(F)c(F)cc3F)c2=O)n1` , report its AUC(0-t).
Reply | 1980

---

Assay: Single ascending oral dose pharmacokinetics (part 1, plasma and urine, fasted)
Format: in vivo, human
Settings: human, plasma, oral, cohort/dose A/20 mg, single dose, geometric mean (%CV), read-out: Vz/F
measuredAttribute: Vd/F (L)
Kindly answer with a numeric value in L, unit omitted.

Ask | Using the record for Cn1cnc(Cn2c(=O)[nH]/c(=N\c3cc4cn(C)nc4cc3Cl)n(Cc3cc(F)c(F)cc3F)c2=O)n1 [Ensitrelvir, ensitrelvir fumaric acid] , report its Vd/F.
Reply | 13.5

---

Assay: Single ascending oral dose pharmacokinetics (part 1, plasma and urine, fasted)
Format: in vivo, human
Settings: human, plasma, oral, cohort/dose B/70 mg, single dose, geometric mean (%CV)
measuredAttribute: AUC(0-inf) (µg·h/mL)
Kindly answer with a numeric value in µg·h/mL, unit omitted.

Ask | Using the record for Cn1cnc(Cn2c(=O)[nH]/c(=N\c3cc4cn(C)nc4cc3Cl)n(Cc3cc(F)c(F)cc3F)c2=O)n1 [Ensitrelvir, ensitrelvir fumaric acid] , report its AUC(0-inf).
Reply | 291
